// IC50 lookup, one value per entry
Study System: human CD73 (Homo sapiens, UniProt P21589)
Sequence (P21589 27-549): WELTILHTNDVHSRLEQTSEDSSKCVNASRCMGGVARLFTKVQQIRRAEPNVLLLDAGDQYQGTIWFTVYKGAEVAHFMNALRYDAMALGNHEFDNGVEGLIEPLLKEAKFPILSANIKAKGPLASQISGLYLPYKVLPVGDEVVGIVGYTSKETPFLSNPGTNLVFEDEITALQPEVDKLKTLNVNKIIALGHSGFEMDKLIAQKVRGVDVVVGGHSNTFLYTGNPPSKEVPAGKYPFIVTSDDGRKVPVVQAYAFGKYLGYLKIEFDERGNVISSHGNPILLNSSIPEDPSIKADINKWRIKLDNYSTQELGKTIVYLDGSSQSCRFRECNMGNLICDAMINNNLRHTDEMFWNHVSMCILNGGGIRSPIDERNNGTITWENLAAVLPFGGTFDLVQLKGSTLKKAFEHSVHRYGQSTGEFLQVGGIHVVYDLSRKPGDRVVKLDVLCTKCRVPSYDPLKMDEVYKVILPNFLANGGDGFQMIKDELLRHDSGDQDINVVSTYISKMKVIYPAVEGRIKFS
Procedure Details: Inhibitor activity against CD73 in cell based assay (CD73 expressing CHO-K1 cells)
Test Parameters: CHO-K1 cells expressing human CD73, 150 μM AMP, 4 hours of incubation; read-out: CHO-K1 CELL VARIANT: CD73 IC50

Some entries whose results are on file:
Cn1cc(S(=O)(=O)N[C@H]2CC[C@H](NC(=O)O[C@@H]3CCN(c4cn[nH]c(=O)c4Cl)C3)CC2)cn1; 0.001 to 10 µM
N#C[C@H]1CCC[C@H]1NC(=O)O[C@@H]1CCN(c2cn[nH]c(=O)c2Cl)C1; 0.001 to 10 µM

Now for a further compound.
## Input Which value of IC50 has been reported for C[C@H]1CCCC[C@H]1NC(=O)O[C@@H]1CCN(c2cn[nH]c(=O)c2Cl)C1 in the records?
## Output 0.001 to 10 µM
